# target: WDR5 protein (Homo sapiens (Human), UniProt P61964)
# protocolText: Surface Plasmon Resonance (SPR) assay
# Type: binding
measuredEndpoint: pKd
Numbers only, as −log10 of the molar value.

Req: Form: Entry = C[C@@H]1CN(c2ccc(-c3ccc(N4CCOCC4)cc3F)cc2NC(=O)c2c[nH]c(=O)cc2C(F)(F)F)C[C@H](C)N1C | System = WDR5 protein (Homo sapiens (Human), UniProt P61964) | pKd = ____
Resp: 8.25

###

# target: WDR5 protein (Homo sapiens (Human), UniProt P61964)
# protocolText: Surface Plasmon Resonance (SPR) assay
# Assay type: binding
# conditionsUsed: SPR, τ=1/koff; read-out: Residence Time (t, min)
Please go through the items and note down their residence time.
Answers are plain numbers, in min.

COC(=O)c1ccc(F)c(-c2ccc(N3CCN(C)CC3)c(NC(=O)c3c[nH]c(=O)cc3C(F)(F)F)c2)c1 [Example 14] | 1.36
CN1CCN(c2ccc(-c3cc(CN4CCOC(C)(C)C4)ccc3F)cc2NC(=O)c2c[nH]c(=O)cc2C(F)(F)F)CC1 [Example 77] | 5.41
C[C@@H]1CN(c2ccc(-c3ccc(C(=O)NC(C)(C)CC(C)(C)C)c(F)c3F)cc2NC(=O)c2c[nH]c(=O)cc2C(F)(F)F)C[C@H](C)N1C [Example 122] | 6.7
CN1CCN(c2ccc(-c3ccc(N4CCCC4)nc3F)cc2NC(=O)c2c[nH]c(=O)cc2C(F)(F)F)CC1 [Example 22] | 2.3
CN1CCN(c2ccc(-c3ccc(CNC4CCCC4)cc3F)cc2NC(=O)c2c[nH]c(=O)cc2C(F)(F)F)CC1 [Example 33] | 1.37

Take each entry in turn and give its residence time.
1. CNC(=O)c1ccc(F)c(-c2ccc(N3C[C@@H](C)N(C)[C@@H](C)C3)c(NC(=O)c3c[nH]c(=O)cc3C(F)(F)F)c2)c1 [Example 90]
2. CN1CCN(c2ccc(-c3cc(C(=O)NC4CCCCC4)ccc3F)cc2NC(=O)c2c[nH]c(=O)cc2C(F)(F)F)CC1 [Example 32]

Resp:
3
9.48

Quick one: give me residence time for each item below, same order please.
1. C[C@@H]1CN(c2ccc(-c3cc(C(=O)NC4CCCCC4)ccc3F)cc2NC(=O)c2c[nH]c(=O)cc2C(F)(F)F)C[C@H](C)N1C [Example 46]
2. Cc1c(F)ccc(C(=O)Nc2cc(-c3cc(CN4CCOCC4)ccc3F)ccc2N2CCN(C)CC2)c1Cl [Example 12]

Resp:
74.4
0.6

Give residence time for each listed item.
1. CC1CN(c2ccc(-c3cc(C(=O)NC4CCCCC4)ccc3F)cc2NC(=O)c2c[nH]c(=O)cc2C(F)(F)F)CCN1C (centres unmarked) [Example 81]
2. C[C@@H]1CN(c2ccc(-c3cc(CN(C)C4COC4)c(F)cc3F)cc2NC(=O)c2c[nH]c(=O)cc2C(F)(F)F)C[C@H](C)N1C [Example 113]
3. CN1CCN(c2ccc(-c3ccc(OC4CCOCC4)nc3F)cc2NC(=O)c2c[nH]c(=O)cc2C(F)(F)F)CC1 [Example 8]
4. Cc1cc(C(=O)Nc2cc(-c3cc(CN4CCOCC4)ccc3F)ccc2N2CCN(C)CC2)cc(C(F)(F)F)c1F [Example 41]
5. CN1CCN(c2ccc(-c3cc(CN4CCOCC4)ccc3F)cc2NC(=O)c2c[nH]c(=O)cc2C(F)(F)F)CC1CO (centres unmarked) [Example 65]

Resp:
0.78
5.5
5.85
0.77
9.93

Source listed as patent US11174250B2.
